- method: chemical genetic growth profiling, strain panel (AID 1159580);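 also: tested at 20 µM; growth read once vehicle control cultures reached saturation at 30 °C; 1 = growth at the plate median or of vehicle wells; lower values mean less growth of the strain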
- assay.setup: S. cerevisiae deletion strains, growth OD, locus YCL029C, strain bik1, hits give low values
Screen size: about 5,500 compounds; about 2,000 (36%) were called active. About 18% were inconclusive and are not listed. The list shows a part of the results.
property.measured: normalized growth
Write no unit; give the number alone.

- compound: "CCCCOc1ccc(CC(=O)NO)cc1"
  property.measured: "normalized growth"
  value.observed: 1
- compound: "CC1(C)C2CC[C@]3(C)C(C(=O)C=C4[C@@H]5C[C@@](C)(C(=O)O)CC[C@]5(C)CC[C@]43C)[C@@]2(C)CC[C@@H]1O (stereo partly drawn)"
  property.measured: "normalized growth"
  value.observed: 0.956
- compound: "Oc1ccc(O)cc1"
  property.measured: "normalized growth"
  value.observed: 1.04
- compound: "CC1(O)/C=C/C=C(\\CO)C2CC(C)(C)C2(O)CC1 (stereo not drawn)"
  property.measured: "normalized growth"
  value.observed: 1
- compound: "Cc1c(N(C)C)c(=O)n(-c2ccccc2)n1C"
  property.measured: "normalized growth"
  value.observed: 0.972
- compound: "CCCCCC(=O)O[C@]1(C(C)=O)CCC2C3CCC4=CC(=O)CC[C@]4(C)C3CC[C@@]21C (stereo partly drawn)"
  property.measured: "normalized growth"
  value.observed: 1.01

Problem: Entry O[C@H]1C=C2CCN3Cc4cc5c(cc4C(C23)[C@@H]1O)OCO5 (stereo partly drawn) has what normalized growth?
Solution: 0.331

Problem: Entry COc1cc(O)c2c(=O)cc(C)oc2c1CC=C(C)C has what normalized growth?
Solution: 0.872

* * *

- method: chemical genetic growth profiling, strain panel (AID 1159580);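 also: tested at 20 µM; growth read once vehicle control cultures reached saturation at 30 °C; 1 = growth at the plate median or of vehicle wells; lower values mean less growth of the strain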
- assay.setup: S. cerevisiae deletion strains, growth OD, locus YHR079C, strain IRE1
Hit rate of the full screen: of about 5,500 compounds, about 2,000 (36%) were called active. About 18% were inconclusive and are not listed. No stated cut-off is given here; in the data, active means normalized growth mostly below about 0.91 (no sharp cut-off); inconclusive means no clear call, values can overlap the other calls; inactive means mostly above about 0.92. This is one part of the list.
Thanks in advance; please answer with one of these: y for active, n for inactive

- molecule: "NC(N)=Nc1nc(-c2cc(Cl)sc2Cl)cs1"
  class.label: "n"
- molecule: "N#Cc1c(Cl)c(Cl)c(Cl)c(C#N)c1Cl"
  class.label: "y"
- molecule: "CN1CCc2cc3c(cc2C1O)OCO3 (centres undefined)"
  class.label: "n"
- molecule: "COc1cc2c3cc1Oc1c(OC)c(OC)cc4c1[C@@H](Cc1cccc(c1)Oc1ccc(c(O)c1)C[C@@H]3N(C)CC2)N(C)CC4"
  class.label: "n"
- molecule: "Cc1ccc(C(=O)C(C)CN2CCCCC2)cc1 (centres undefined)"
  class.label: "n"
- molecule: "NC(N)=Nc1nc(CSCCC(N)=NS(N)(=O)=O)cs1"
  class.label: "n"

Problem: // param item: CCC1(c2ccccc2)C(=O)NCNC1=O ; yields the recorded call
Solution: n

Problem: // param item: N#Cc1c(Cl)c(Cl)c(Cl)c(Cl)c1C#N ; yields the recorded call
Solution: y

Problem: // param item: Oc1c(Cl)c(Cl)c(Cl)c(Cl)c1Cl ; yields the recorded call
Solution: y

* * *

- method: chemical genetic growth profiling, strain panel (AID 1159580);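 also: tested at 20 µM; growth read once vehicle control cultures reached saturation at 30 °C; 1 = growth at the plate median or of vehicle wells; lower values mean less growth of the strain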
- assay.setup: S. cerevisiae deletion strains, growth OD, locus YER111C, strain swi4, hits give low values
Out of some 5,500 compounds screened, about 2,000 (36%) were called active. Roughly 18% stayed inconclusive and do not appear here. Some of the results follow.
property.measured: normalized growth
Write no unit; give the number alone.

- molecule: "CCc1ccc(CCOc2ccc(CC3SC(=O)NC3=O)cc2)nc1 (configuration not stated)"
  value.observed: 1
- molecule: "COc1cccc([C@]2(O)CCCC[C@H]2CN(C)C)c1"
  value.observed: 0.974
- molecule: "CCC(C(=O)O)c1ccccc1 (configuration not stated)"
  value.observed: 0.979
- molecule: "C/C=C(/C(=C/C)c1ccc(O)cc1)c1ccc(O)cc1"
  value.observed: 0.993
- molecule: "NCC1CCCCC1CC(=O)O (configuration not stated)"
  value.observed: 1.01
- molecule: "C1CCc2nnnn2CC1"
  value.observed: 1
- molecule: "C=C1CC[C@H](O)C/C1=C/C=C1\\CCC[C@]2(C)C([C@H](C)/C=C/[C@H](C)C(C)C)CC[C@@H]12 (some centres not stated)"
  value.observed: 0.996
- molecule: "O=C(O)c1cc(=O)c2ccc(Cl)cc2[nH]1"
  value.observed: 1.01

Problem: Entry CC(C(=O)O)c1ccc2c(c1)[nH]c1ccc(Cl)cc12 (configuration not stated) has what normalized growth?
Solution: 0.99

Problem: Entry COC(=O)[C@@H]1C(O)CC[C@H]2CN3CCc4c([nH]c5ccccc45)[C@@H]3C[C@@H]21 (some centres not stated) has what normalized growth?
Solution: 1.01

Problem: Entry C[N+](C)(C)CCOP(=O)([O-])OP(=O)(O)OC[C@H]1OC(n2ccc(N)nc2=O)[C@H](O)[C@@H]1O (some centres not stated) has what normalized growth?
Solution: 0.978

Problem: Entry CN1CCCC(n2nc(Cc3ccc(Cl)cc3)c3ccccc3c2=O)CC1 (configuration not stated) has what normalized growth?
Solution: 1.01

Problem: Entry COc1ccc(-c2coc3c(O)c(OC)ccc3c2=O)cc1 has what normalized growth?
Solution: 0.993

Problem: Entry OC(CCN1CCCCC1)(c1ccccc1)c1ccccc1 has what normalized growth?
Solution: 0.983

Problem: Entry CNc1ccccc1C(=O)N1CCc2c([nH]c3ccccc23)C1=O has what normalized growth?
Solution: 1

Problem: Entry CN1CCc2cc3c(cc2C1O)OCO3 (configuration not stated) has what normalized growth?
Solution: 0.992

Problem: Entry CN1C2CC3C[C@H]1C(O3)C2O (some centres not stated) has what normalized growth?
Solution: 1.02
